- Test system: NCI-H226 lung
- experiment_notes: NCI tumour cell line growth inhibition, 48 h
Kindly state TGI for each of the entries shown.
Answers are plain numbers, in µM.

compound | experimental_result
CC1OC(OC2C(O[C@H]3CC[C@@]4(C)C(=CC[C@H]5[C@@H]6C[C@@H]7O[C@]8(CC[C@@H](CO)CO8)[C@@H](C)[C@@H]7[C@@]6(C)CC[C@@H]54)C3)OC(CO)C(O)C2OC2OC(CO)C(O)C(O)C2O)C(O)C(O)C1O (stereo not given in full) | 3.79
COc1cccc(-c2ccc3c4c2O[C@H]2C(=O)CC[C@@]5(O)[C@@H](C3)N(CC3CC3)CC[C@]425)c1 | 26.8
N=C(N)c1ccc(C(NC(=O)CNS(=O)(=O)c2ccc3ccccc3c2)P(=O)(Oc2ccccc2)Oc2ccccc2)cc1 (stereo not given) | 38.8

Would you mind listing TGI for each of the following compounds?
1. O=Cc1ccc2c(c1)CC1(Cc3ccccc3C1)C2
2. CC1(C)C(=O)N(CCCCCCN2C(=O)C(C)(C)c3ccccc32)c2ccccc21
3. CN1CCN(CCCOc2ccc3nc(Nc4ccc(Cl)c(C(F)(F)F)c4)ccc3c2)CC1
4. COC(=O)C1=CNC=C(C(=O)OC)C1C1=CC(=O)C(C)=CC1=O

Reply:
1: 73.2; 2: 87.2; 3: 57.1; 4: 17.2

Would you mind listing TGI for each of the following compounds?
1. COC1=CC(=O)c2nc(-c3cccc(C)n3)[nH]c2C1=O
2. Cc1ccc(/C=C2\CCCc3ccccc3C2=O)cc1
3. N=C1C(c2nc3ccccc3s2)=C(O)CN1c1cc(C(F)(F)F)ccc1Cl
4. CCN(CC)C(=S)N/N=C(/C)c1cccc(/C(C)=N\NC(=S)N(CC)CC)n1
5. COc1cc(/C=C/c2cc(/C=C/c3ccc(O)c(OC)c3)n(C(=O)Nc3ccc(F)c(Cl)c3)n2)ccc1O
6. Clc1nc(Cl)c(Cl)c(-c2ccccc2)n1

Reply:
43.8
36.1
28.5
4.77
2.3
65.4

Would you mind listing TGI for each of the following compounds?
1. CC(C)(C)c1cc(Br)c(O)c(CN(Cc2cc(C(C)(C)C)cc(Br)c2O)C2CCCCC2)c1
2. Oc1ccc(-c2nc(-c3cccnc3)c(-c3ccc(Cl)cc3)[nH]2)cc1
3. CCOC(=O)CC1(C(=O)OCC)c2[nH]c3ccccc3c2CCN1Cc1ccccc1 (stereo not given)
4. COc1cc2nc3cc([N+](=O)[O-])ccc3c(NCCCNCCO)c2cc1OC
5. Cc1c(S(=O)(=O)/N=C(\NO)Nc2ccc(Cl)c(Cl)c2)sc2ccc(Cl)cc12

Reply:
[29.1, 33.3, 35.5, 0.505, 43.8]

---

- Tested on: UO-31 renal
- experiment_notes: NCI tumour cell line growth inhibition, 48 h
Label scheme for TGI: lower than 40 µM is class 0, 40 µM and above is class 1.

# count of solved cases: 3
compound | group_label
COc1cc(/C=C2\C(=O)N(c3ccccc3)C(c3ccccc3)S2(=O)=O)cc(OC)c1OC (configuration not stated) | class 1
Cn1c2c(c3ccccc31)CC1c3c(c4ccccc4n3C)CC21 (configuration not stated) | class 1
CCOCc1nc2c(OC)cc(-c3nc4ccc(N5CCN(C)CC5)cc4[nH]3)c(OC)c2[nH]1 | class 1

Task item: Decide: TGI of O=C(O)c1ccc([N+](=O)[O-])c2cc3cnccc3nc12 >= 40 µM?
Reply: class 1

Task item: Decide: TGI of O=C1C(CN2CCCCC2)CCC1CN1CCCCC1 (configuration not stated) >= 40 µM?
Reply: class 0

Task item: Decide: TGI of COC1=C(OC)C(=O)C(Cc2c(C)nc3sc(C)cn23)=C(C)C1=O >= 40 µM?
Reply: class 0

Where do these numbers come from? They come from PubChem BioAssay (NCI).
